This collection of values is drawn from paper PMC9482650.

Target: PDZRN4_1, Q6ZMN7
Sequence (Q6ZMN7 213-318): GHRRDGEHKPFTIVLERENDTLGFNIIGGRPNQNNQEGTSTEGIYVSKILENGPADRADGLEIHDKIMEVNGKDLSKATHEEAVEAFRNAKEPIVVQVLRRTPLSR
Experiment: holdup assay
Set-up: key: below the threshold = too weak to quantify, mostly under pKd 3.1 to 4
Settings: plain residues with an end cap or a label only (N-terminal biotin on a linker: ttds)

>  <Binder>
SEKHFRETEV [HTLV1-TAX1, P03409]

>  <pKd>
4.9

$$$$
>  <Binder>
LCALPKVTTV [AGMAT, Q9BSE5]

>  <pKd>
3.75

$$$$
>  <Binder>
RTRQRNETQV [HPV51-E6, P26554]

>  <pKd>
4.16

$$$$
>  <Binder>
NYWPGKETQL [SLCO1C1, Q9NYB5]

>  <pKd>
5.47

$$$$
>  <Binder>
DPRNTQTSQI [ABRAXAS2, Q15018]

>  <pKd>
3.56

$$$$
>  <Binder>
LDSQIQETSI [MAP4, P27816]

>  <pKd>
4.84

$$$$
